A collection of binders and their measured OD450 at 0.001 nM
# target_entity: T1, human MSLN-R3-his protein (human, UniProt Q13421 487-598)
# T1 construct: Region 3 of human MSLN, His-tagged; also called human MSLN-R3 protein; hMSLN-R3-his; not shown: His tag
# protocol_notes: ELISA, coated MSLN-R3
Supply the numeric figure in OD450, leaving out any unit text.

Check out these entries, answers already filled in.
1) S009-F1.25.10 (antibody, human IgG1, kappa, V domains shown, Human-murine chimeric antibody, human IgG1/kappa constant regions) VH: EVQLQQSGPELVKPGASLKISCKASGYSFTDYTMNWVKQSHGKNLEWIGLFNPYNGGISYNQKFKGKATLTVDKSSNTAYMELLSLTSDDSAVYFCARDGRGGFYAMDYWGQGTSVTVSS VL: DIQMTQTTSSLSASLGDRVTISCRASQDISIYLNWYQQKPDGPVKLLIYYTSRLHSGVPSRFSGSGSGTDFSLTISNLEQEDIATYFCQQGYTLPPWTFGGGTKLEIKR    0.05
2) S009-F1.62.9 (antibody, human IgG1, kappa, V domains shown, Human-murine chimeric antibody, human IgG1/kappa constant regions) VH: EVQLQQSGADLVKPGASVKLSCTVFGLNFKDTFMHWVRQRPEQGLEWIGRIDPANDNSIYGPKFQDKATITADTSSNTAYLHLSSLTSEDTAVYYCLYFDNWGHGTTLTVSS VL: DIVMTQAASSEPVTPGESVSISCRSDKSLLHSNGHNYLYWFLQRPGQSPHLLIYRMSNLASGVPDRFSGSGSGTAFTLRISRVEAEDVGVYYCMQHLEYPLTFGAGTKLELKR    0.06
3) S009-F1.56.1 (antibody, human IgG1, kappa, V domains shown, Human-murine chimeric antibody, human IgG1/kappa constant regions) VH: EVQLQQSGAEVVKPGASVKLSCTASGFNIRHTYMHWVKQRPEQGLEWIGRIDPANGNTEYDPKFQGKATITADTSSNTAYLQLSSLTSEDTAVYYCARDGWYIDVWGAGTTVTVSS VL: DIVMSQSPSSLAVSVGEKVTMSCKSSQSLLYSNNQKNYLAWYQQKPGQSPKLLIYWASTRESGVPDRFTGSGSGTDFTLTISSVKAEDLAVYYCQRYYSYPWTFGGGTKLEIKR    0.04

Moving on to another binder below.
Give its OD450 at 0.001 nM value. Item: S009-F1.2.12 (antibody, human IgG1, kappa, V domains shown) VH: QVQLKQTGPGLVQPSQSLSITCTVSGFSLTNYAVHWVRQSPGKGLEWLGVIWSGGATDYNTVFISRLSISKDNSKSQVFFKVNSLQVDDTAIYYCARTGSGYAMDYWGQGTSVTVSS VL: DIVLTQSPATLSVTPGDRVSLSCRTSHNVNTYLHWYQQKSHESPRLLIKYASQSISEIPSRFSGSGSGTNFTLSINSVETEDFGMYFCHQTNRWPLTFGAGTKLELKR
0.06
